Tested on: Plasmodium falciparum
Test protocol: microbe, parasite or virus in culture
Condition context: F09N29, 72 h
Assay readout: pIC50
To interpret pIC50, take it as minus log10 of a concentration measured in moles per litre.

Supply reported pIC50 belonging to this compound: "C=C[C@H]1CN2CC[C@H]1C[C@H]2[C@H](O)c1ccnc2ccc(OC)cc12" 6.07

====

Tested on: Plasmodium falciparum
Test protocol: microbe, parasite or virus in culture
Condition context: F07-46, 72 h
Assay readout: pIC50
To interpret pIC50, take it as minus log10 of a concentration measured in moles per litre.

Supply reported pIC50 belonging to this compound: "C=C[C@H]1CN2CC[C@H]1C[C@H]2[C@H](O)c1ccnc2ccc(OC)cc12" 6.05

Source of measurements: ChEMBL document CHEMBL1671726
